Cited source: ChEMBL document CHEMBL3091290

Procedure summary: Ratio of drug level in brain (0 to infinity) to plasma (0 to infinity) in ICR mouse at 1 mg/kg, po
Assay type: ADME, organism-based
Set-up: dose 1 mg/kg, route oral
Experimental parameters: read-out: BPR
Observable: Kp

chemical_smiles=Cn1c(N2CCO[C@@H](c3ccc(F)cc3)C2)nc(-c2ccncn2)cc1=O observable=Kp observed_result=3.1

---

Procedure summary: AUC (0 to infinity) in Sprague-Dawley rat at 10 mg/kg, po
Type: ADME, organism-based
Design: time infinity, dose 10 mg/kg, route oral
Experimental parameters: plasma
Observable: AUC(0-inf) (ng·h/mL)

chemical_smiles=Cn1c(N2CCO[C@@H](c3ccc(F)cc3)C2)nc(-c2ccncn2)cc1=O value_unit=ng·h/mL observed_result=1300

---

Recorded measurements of IC50, one per entry
Target: Glycogen synthase kinase-3 beta (Homo sapiens, UniProt P49841)
Sequence (P49841 whole entry): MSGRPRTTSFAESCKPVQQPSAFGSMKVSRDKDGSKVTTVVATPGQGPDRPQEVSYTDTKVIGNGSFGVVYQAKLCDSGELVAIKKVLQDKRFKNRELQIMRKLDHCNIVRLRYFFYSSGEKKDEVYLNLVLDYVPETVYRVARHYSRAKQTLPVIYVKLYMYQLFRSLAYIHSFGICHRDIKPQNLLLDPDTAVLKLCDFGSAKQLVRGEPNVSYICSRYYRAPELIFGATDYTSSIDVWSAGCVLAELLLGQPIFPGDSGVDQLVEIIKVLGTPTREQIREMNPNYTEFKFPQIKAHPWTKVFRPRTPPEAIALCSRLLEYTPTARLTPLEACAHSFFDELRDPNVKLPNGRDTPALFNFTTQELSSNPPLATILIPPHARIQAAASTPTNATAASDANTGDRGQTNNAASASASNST
Procedure summary: Inhibition of human recombinant GSK-3beta using prephosphorylated GS1 peptide and [gamma-32P]ATP as substrate after 1 hr by liquid scintillation spectrometry
Observable: IC50 (nM)

molecule=Cn1c(N2CCO[C@@H](c3ccc(C#N)cc3)C2)nc(-c2ccncn2)cc1=O value_unit=nM observed_result=13
molecule=Cn1c(N2CCO[C@@H](c3c(F)cccc3Cl)C2)nc(-c2ccncn2)cc1=O value_unit=nM observed_result=0.64
molecule=COc1cccc(OC)c1[C@H]1CN(c2nc(-c3ccncn3)cc(=O)n2C)CCO1 value_unit=nM observed_result=0.23
molecule=Cn1c(N2CCO[C@@H](c3ccc(F)cc3)C2)nc(-c2ccncn2)cc1=O value_unit=nM observed_result=12
molecule=Cn1c(N2CCO[C@@H](c3ccc(F)cc3)C2)nc(-c2ccncc2Cl)cc1=O value_unit=nM observed_result=430
molecule=COc1ccc([C@H]2CN(c3nc(-c4ccncn4)cc(=O)n3C)CCO2)cc1 value_unit=nM observed_result=2.9
molecule=Cn1c(N2CCO[C@@H](c3ccccc3F)C2)nc(-c2ccncn2)cc1=O value_unit=nM observed_result=3.2
molecule=Cn1c(N2CCO[C@@H](c3ccc(F)cc3)C2)nc(-c2ccncc2)cc1=O value_unit=nM observed_result=22
molecule=Cn1c(N2CCO[C@@H](c3ccc(F)cc3)C2)nc(-c2ccnc(Cl)c2)cc1=O value_unit=nM observed_result=903
molecule=COc1cc(F)ccc1[C@H]1CN(c2nc(-c3ccncn3)cc(=O)n2C)CCO1 value_unit=nM observed_result=0.47
molecule=Cn1c(N2CCO[C@@H](c3ccc(C#N)cc3F)C2)nc(-c2ccncn2)cc1=O value_unit=nM observed_result=6.5
molecule="Cn1c(N2CCOC(c3ccc(F)cc3)C2)nc(-c2ccncc2)cc1=O (racemic)" value_unit=nM observed_result=27
molecule="Cn1c(N2CCOC(c3ccccc3)C2)nc(-c2ccncc2)cc1=O (racemic)" value_unit=nM observed_result=51
molecule=Cn1c(N2CCO[C@@H](c3ccc(F)cc3)C2)nc(-c2ccncc2F)cc1=O value_unit=nM observed_result=7.4
molecule=COc1cnccc1-c1cc(=O)n(C)c(N2CCO[C@@H](c3ccc(F)cc3)C2)n1 value_unit=nM observed_result=791
molecule=COc1ccccc1[C@H]1CN(c2nc(-c3ccncn3)cc(=O)n2C)CCO1 value_unit=nM observed_result=0.87
molecule=Cc1cnccc1-c1cc(=O)n(C)c(N2CCO[C@@H](c3ccc(F)cc3)C2)n1 value_unit=nM observed_result=2470
molecule=COc1cccc([C@H]2CN(c3nc(-c4ccncn4)cc(=O)n3C)CCO2)c1 value_unit=nM observed_result=4.6
molecule=Cn1c(N2CCO[C@H](c3ccc(F)cc3)C2)nc(-c2ccncc2)cc1=O value_unit=nM observed_result=77

---

Target: Cytochrome P450 1A2 (Homo sapiens, UniProt P05177)
Sequence (P05177 whole entry): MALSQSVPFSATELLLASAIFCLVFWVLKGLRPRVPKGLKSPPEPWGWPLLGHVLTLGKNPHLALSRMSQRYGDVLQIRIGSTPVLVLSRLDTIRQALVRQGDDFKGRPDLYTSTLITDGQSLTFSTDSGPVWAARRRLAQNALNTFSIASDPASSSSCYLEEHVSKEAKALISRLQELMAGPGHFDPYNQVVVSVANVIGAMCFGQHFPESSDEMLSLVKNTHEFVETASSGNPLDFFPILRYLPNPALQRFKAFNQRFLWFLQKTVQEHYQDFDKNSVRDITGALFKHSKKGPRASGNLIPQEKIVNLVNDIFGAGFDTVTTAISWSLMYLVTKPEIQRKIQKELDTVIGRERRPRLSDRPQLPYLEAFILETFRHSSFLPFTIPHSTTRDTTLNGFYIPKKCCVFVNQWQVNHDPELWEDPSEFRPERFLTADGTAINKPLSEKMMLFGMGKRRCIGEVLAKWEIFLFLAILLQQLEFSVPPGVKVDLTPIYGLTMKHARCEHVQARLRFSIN
Procedure summary: Inhibition of recombinant human CYP1A2
Observable: IC50 (µM)

compound=Cn1c(N2CCO[C@@H](c3ccccc3F)C2)nc(-c2ccncn2)cc1=O observable=IC50 value_unit=µM measurement_qualifier== observed_result=23.3
compound=COc1cccc([C@H]2CN(c3nc(-c4ccncn4)cc(=O)n3C)CCO2)c1 observable=IC50 value_unit=µM measurement_qualifier=> observed_result=50
compound=Cn1c(N2CCO[C@@H](c3ccc(F)cc3)C2)nc(-c2ccncc2)cc1=O observable=IC50 value_unit=µM measurement_qualifier== observed_result=17.1
compound=COc1cc(F)ccc1[C@H]1CN(c2nc(-c3ccncn3)cc(=O)n2C)CCO1 observable=IC50 value_unit=µM measurement_qualifier== observed_result=16.5
compound=Cn1c(N2CCO[C@@H](c3ccc(F)cc3)C2)nc(-c2ccncn2)cc1=O observable=IC50 value_unit=µM measurement_qualifier== observed_result=29.4
compound=COc1ccccc1[C@H]1CN(c2nc(-c3ccncn3)cc(=O)n2C)CCO1 observable=IC50 value_unit=µM measurement_qualifier== observed_result=15.7
compound=COc1cccc(OC)c1[C@H]1CN(c2nc(-c3ccncn3)cc(=O)n2C)CCO1 observable=IC50 value_unit=µM measurement_qualifier=> observed_result=50
compound=Cn1c(N2CCO[C@@H](c3ccc(F)cc3)C2)nc(-c2ccncc2F)cc1=O observable=IC50 value_unit=µM measurement_qualifier== observed_result=5.5
compound=Cn1c(N2CCO[C@@H](c3ccc(C#N)cc3)C2)nc(-c2ccncn2)cc1=O observable=IC50 value_unit=µM measurement_qualifier=> observed_result=50
compound="Cn1c(N2CCOC(c3ccccc3)C2)nc(-c2ccncc2)cc1=O (racemic)" observable=IC50 value_unit=µM measurement_qualifier== observed_result=23.1

---

System: Rattus norvegicus
Procedure summary: Cmax in Sprague-Dawley rat at 10 mg/kg, po
Type: ADME, organism-based
Design: dose 10 mg/kg, route oral
Experimental parameters: in vivo
Observable: Cmax (ng/mL)

chemical_smiles=Cn1c(N2CCO[C@@H](c3ccc(F)cc3)C2)nc(-c2ccncn2)cc1=O target="Rattus norvegicus" observed_result=221

---

Target: Cytochrome P450 1A2 (Homo sapiens, UniProt P05177)
Procedure summary: Inhibition of recombinant human CYP1A2
Observable: IC50 (µM)

molecule=Cn1c(N2CCO[C@@H](c3c(F)cccc3Cl)C2)nc(-c2ccncn2)cc1=O measurement_qualifier== observed_result=19.5
molecule=Cn1c(N2CCO[C@@H](c3ccc(C#N)cc3F)C2)nc(-c2ccncn2)cc1=O measurement_qualifier=> observed_result=50
molecule="Cn1c(N2CCOC(c3ccc(F)cc3)C2)nc(-c2ccncc2)cc1=O (racemic)" measurement_qualifier== observed_result=23.9
molecule=COc1ccc([C@H]2CN(c3nc(-c4ccncn4)cc(=O)n3C)CCO2)cc1 measurement_qualifier=> observed_result=50

---

Target: Casein kinase I isoform alpha (Homo sapiens)
Sequence (P48729 whole entry, canonical isoform): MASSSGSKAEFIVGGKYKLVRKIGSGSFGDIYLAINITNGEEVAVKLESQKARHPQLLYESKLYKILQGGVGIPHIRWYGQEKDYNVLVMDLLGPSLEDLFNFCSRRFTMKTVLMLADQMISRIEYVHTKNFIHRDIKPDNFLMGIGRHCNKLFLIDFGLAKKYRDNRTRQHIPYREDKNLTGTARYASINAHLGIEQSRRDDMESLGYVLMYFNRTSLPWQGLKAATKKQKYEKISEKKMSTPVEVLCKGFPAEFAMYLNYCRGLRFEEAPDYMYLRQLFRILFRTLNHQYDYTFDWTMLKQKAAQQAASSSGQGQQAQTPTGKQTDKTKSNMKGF
Procedure summary: Inhibition of CK1 (unknown origin)
Observable: IC50 (nM)

chemical_smiles=Cn1c(N2CCO[C@@H](c3ccc(F)cc3)C2)nc(-c2ccncn2)cc1=O target="Casein kinase I isoform alpha (Homo sapiens)" observable=IC50 value_unit=nM observed_result=1500

---

Procedure summary: Half life in Sprague-Dawley rat at 10 mg/kg, po
Format: ADME, organism-based
Design: dose 10 mg/kg, route oral
Experimental parameters: in vivo
Observable: half-life (h)

chemical_smiles=Cn1c(N2CCO[C@@H](c3ccc(F)cc3)C2)nc(-c2ccncn2)cc1=O observed_result=1.7

---

Target: Cytochrome P450 2D6 (Homo sapiens, UniProt P10635)
Sequence (P10635 whole entry): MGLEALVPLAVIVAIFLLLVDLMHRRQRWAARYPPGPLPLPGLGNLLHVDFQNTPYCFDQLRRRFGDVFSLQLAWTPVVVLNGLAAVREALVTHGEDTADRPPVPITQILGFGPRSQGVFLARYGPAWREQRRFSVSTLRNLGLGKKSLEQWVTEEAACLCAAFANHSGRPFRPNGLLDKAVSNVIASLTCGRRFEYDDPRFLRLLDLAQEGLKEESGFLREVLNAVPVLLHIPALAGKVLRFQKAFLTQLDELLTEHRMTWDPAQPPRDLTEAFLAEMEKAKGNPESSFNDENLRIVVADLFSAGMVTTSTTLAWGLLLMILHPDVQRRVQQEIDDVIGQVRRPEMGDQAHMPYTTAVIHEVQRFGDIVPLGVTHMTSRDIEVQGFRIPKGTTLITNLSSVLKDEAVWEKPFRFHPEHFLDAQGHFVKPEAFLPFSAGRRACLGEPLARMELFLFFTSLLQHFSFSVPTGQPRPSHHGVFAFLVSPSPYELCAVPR
Procedure summary: Inhibition of recombinant human CYP2D6
Assay type: ADME
# IC50 listing for each entry below
Observable: IC50

compound=Cn1c(NCC(=O)c2ccccc2)nc(-c2ccncc2)cc1=O observed_result="> 50 µM"
compound="Cn1c(N2CCOC(c3ccccc3)C2)nc(-c2ccncc2)cc1=O (racemic)" observed_result="47.4 µM"
compound="Cn1c(N2CCOC(c3ccc(F)cc3)C2)nc(-c2ccncc2)cc1=O (racemic)" observed_result="35.8 µM"
compound=COc1cc(F)ccc1[C@H]1CN(c2nc(-c3ccncn3)cc(=O)n2C)CCO1 observed_result="18 µM"
compound=Cn1c(N2CCO[C@@H](c3ccc(F)cc3)C2)nc(-c2ccncc2)cc1=O observed_result="44.2 µM"
compound=Cn1c(N2CCO[C@@H](c3ccc(F)cc3)C2)nc(-c2ccncn2)cc1=O observed_result="39.7 µM"
compound=COc1cccc(OC)c1[C@H]1CN(c2nc(-c3ccncn3)cc(=O)n2C)CCO1 observed_result="> 50 µM"
compound=COc1ccc([C@H]2CN(c3nc(-c4ccncn4)cc(=O)n3C)CCO2)cc1 observed_result="6.9 µM"
compound=Cn1c(N2CCO[C@@H](c3ccc(C#N)cc3F)C2)nc(-c2ccncn2)cc1=O observed_result="26.7 µM"
compound=COc1cccc([C@H]2CN(c3nc(-c4ccncn4)cc(=O)n3C)CCO2)c1 observed_result="26.6 µM"
compound=Cn1c(N2CCO[C@@H](c3ccc(C#N)cc3)C2)nc(-c2ccncn2)cc1=O observed_result="4.5 µM"
compound=Cn1c(N2CCO[C@@H](c3ccc(F)cc3)C2)nc(-c2ccncc2F)cc1=O observed_result="22.1 µM"
compound=COc1ccccc1[C@H]1CN(c2nc(-c3ccncn3)cc(=O)n2C)CCO1 observed_result="16 µM"
compound=Cn1c(N2CCO[C@@H](c3ccccc3F)C2)nc(-c2ccncn2)cc1=O observed_result="32.4 µM"
compound=Cn1c(N2CCO[C@@H](c3c(F)cccc3Cl)C2)nc(-c2ccncn2)cc1=O observed_result="32.3 µM"
